Molecular target: T1, PSMA Fab (006 PSMA Fab)
T1 construct: also called Anti-PSMA Fab; anti-PSMA Fab
Assay: phage ELISA; PSMA Fab on plate pre-incubated with PSMA antigen as competitor, anti-M13 HRP detection;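 further: crude clonal phage supernatants added to Fab-coated wells still holding PSMA antigen in blocking buffer, with bound phage as read-out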
Outcome measure: Phage binding ELISA signal, Anti-PSMA Fab in presence of PSMA antigen
Answer with the value's number alone.

Would you kindly share the measured Phage binding ELISA signal, Anti-PSMA Fab in presence of PSMA antigen for GHMYCSPLWMCEGF (tested as crude clonal phage supernatant) [Phage-3902] ?
0.131

Find the recorded Phage binding ELISA signal, Anti-PSMA Fab in presence of PSMA antigen belonging to GYHLCIPEWMCSGL (tested as crude clonal phage supernatant) [Phage-3904] and report it.
0.0923

Param item = TERMCSPSWMCDGF (tested as crude clonal phage supernatant) [Phage-3908] ; retrieve measured Phage binding ELISA signal, Anti-PSMA Fab in presence of PSMA antigen.
0.0693

Give its Phage binding ELISA signal, Anti-PSMA Fab in presence of PSMA antigen value. Item: SDALCRPHWMCAGF (tested as crude clonal phage supernatant) [Phage-3906]
0.061

FYI, the data here is from patent US20260242478A1.
